Source of measurements: the Bradley open melting point set (2014)

Result Type: melting point (°C)

Answered cases to consult:
In [3]: df
Out[3]:
                                   compound  numeric_readout
0                       CC1(C)C=C(C(=O)O)C1               70
1  COc1cc(/C=C/C(=O)NCCc2ccc(OCc3ccccc3)c(OC)c2)ccc1OCc1ccccc1              164
2                 OB(O)c1cccc2c1Sc1ccccc1S2              147
3                             O=C(O)C1CCCC1              3.5
4                          CCC=O [propanal]              -80

[P] O=C(O)/C(=C/c1ccccc1[N+](=O)[O-])c1ccccc1F [(E)-2-(2-Fluorophenyl)-3-(2-nitrophenyl)propenoic acid]
[Q] COc1ccc(OC)c(C(C)=O)c1
[in] Lab note: check whether P or Q has the lower measured melting point. # answer = label of selected item
[out] Q
(Q: 20 °C, P: 212 °C)

* * *

Result Type: melting point (°C)

>>> print(df.to_string())
                                   compound  numeric_readout
0  O=C(Cl)C(Cl)(Cl)Cl [Trichloroacetyl chloride]             -146
1                            CSCC[C@H](N)CO               32
2                           CCCCB(CCCC)CCCC              -34
3     CP(C)(C)=O [trimethylphosphine oxide]              141
4  Cn1c(/C(C#N)=N/Nc2ccc(Cl)cc2Cl)nc2ccccc21              161
5                Cc1cc(C(=O)NNCc2ccccc2)no1              106
6             O=[N+]([O-])c1ccc(C2OCCO2)cc1               86

[P] Cc1cc(N)ccc1Br
[Q] O=C(O)c1ccc(O)cc1 [4-hydroxybenzoic_acid]
[R] COc1ccc(N=C=S)cc1 [4-methoxyphenyl isothiocyanate]
[S] CNC=O [n-methylformamide]
[in] Ordering: ascending melting point. Return value: ordered labels per request.
[out] S, R, P, Q
(S: -40 °C, R: 19 °C, P: 81 °C, Q: 217 °C)

* * *

Result Type: melting point (°C)

In [3]: df
Out[3]:
                    compound  numeric_readout
0  C#CCO [propargyl alcohol]              -53

[I] O=C1c2c(O)cccc2Cc2cccc(O)c21 [1,8-Dihydroxyanthracen-9(10H)-one]
[II] CCOC(=O)/C=C(/C)N [ethyl 3-aminocrotonate]
[in] Lab note: check whether I or II has the lower measured melting point. # answer = label of selected item
[out] II

* * *

Result Type: melting point (°C)

>>> df
             compound    result_type  numeric_readout
0  CN(C)c1ccc(N=O)cc1  melting point               86
1     CCC(=O)c1ccccc1  melting point               18
2   CCCCCCCCCCCCCCCCS  melting point               21

[A] C[C@@](Cc1ccc(O)c(O)c1)(NN)C(=O)O
[B] O=[N+]([O-])c1c(F)cc(F)cc1F
[in] Response body: label of entry with the larger melting point; valid values A , B . # answer = label of selected item
[out] A

[P] Cc1ccc(N2C(=O)C=CC2=O)cc1Cl [N-(3-chloro-4-methylphenyl)maleimide]
[Q] Nc1ccc(Oc2ccccc2)cc1
[in] Lab note: check whether P or Q has the lower measured melting point. # answer = label of selected item
[out] Q
(Q: 84 °C, P: 146 °C)

* * *

Result Type: melting point (°C)

Answered cases to consult:
In [3]: df
Out[3]:
                                   molecule  numeric_readout
0  C[C@]12CCC(=O)C[C@@H]1CC[C@@H]1[C@@H]2CC[C@]2(C)[C@@H](O)CC[C@@H]12              181
1  COC(F)(F)C(Cl)Cl [2,2-Dichloro-1,1-difluoroethyl methyl ether]              -35
2                           Oc1ncc(F)c(O)n1              283
3  COc1cc(OC)c2c(c1)C(O)OC2=O (centres undefined) [3-hydroxy-5,7-dimethoxy-2-benzofuran-1(3H)-one]              185
4  O=C1OC(=O)c2c(Cl)c(Cl)c(Cl)c(Cl)c21 [tetrachlorophthalic anhydride]              256

[a] CCOc1ccc(B(O)O)cc1
[b] Clc1cc(Cl)nc(Cl)n1
[c] COC(=O)c1ccc(OC)cc1 [methyl_4-methoxybenzoate]
[d] COc1cccc(O)c1
[in] Ordering: ascending melting point. Return value: ordered labels per request.
[out] d, b, c, a
(d: -18 °C, b: 23 °C, c: 50 °C, a: 167 °C)

* * *

Result Type: melting point (°C)

Answered cases to consult:
                                   molecule  numeric_readout
0             c1ccc(N(c2ccccc2)c2ccccc2)cc1              127
1  CCOCCC(=O)OCC [ethyl 3-ethoxypropionate]             -100
2      CC(Br)C(Br)C(=O)O (stereo not given)               86

[a] Nc1nc(=O)c2ncn(COC(CO)CO)c2[nH]1
[b] OCCCCCCCCCCCCO
[c] CC(=O)c1ccc(B(O)O)s1
[in] Ordering: ascending melting point. Return value: ordered labels per request.
[out] b, c, a
(b: 83 °C, c: 145 °C, a: 250 °C)

* * *

Result Type: melting point (°C)

Answered cases to consult:
                                   molecule  numeric_readout
0  CC(=O)Nc1ccc(Cl)cc1F [4'-chloro-2'-fluoroacetanilide]              156
1  O=[N+]([O-])c1ccc(I)cc1 [1-Iodo-4-nitrobenzene]              176
2  CN(C)CCC=C1c2ccccc2CCc2ccccc21 [amitriptyline]              196
3  c1ccc2c(-c3cccc4ccccc34)cccc2c1 [binaphthyl]              154
4  CC(C)=CCC/C(C)=C/CC/C(C)=C/CC/C=C(\C)CC/C=C(\C)CCC=C(C)C [squalene]              -75
5  C=Cc1ccccc1B(O)O [2-vinylbenzeneboronic acid]              106
6  CCN(CC)CCOC(=O)C(O)(c1ccccc1)c1ccccc1 [benactyzin]               51

[I] CCN1CCOCC1 [4-Ethylmorpholine]
[II] O=C(O)CCCCCCCCCCCCCCCCCCC(=O)O [1,18-octadecanedicarboxylic acid]
[III] Nc1ccc(S(=O)(=O)Nc2nccs2)cc1 [sulfathiazole]
[in] Ordering: ascending melting point. Return value: ordered labels per request.
[out] I, II, III
(I: -63 °C, II: 127 °C, III: 202 °C)

* * *

Result Type: melting point (°C)

                       compound  numeric_readout
0  CC(Cl)CCl (stereo not given)             -100

[1] Nc1nc2ccc([N+](=O)[O-])cc2s1
[2] CC(=O)Nc1ccc(C(C)=O)cc1Br
[in] Response body: label of entry with the larger melting point; valid values 1 , 2 . # answer = label of selected item
[out] 1
(1: 248 °C, 2: 140 °C)

* * *

Result Type: melting point (°C)

Answered cases to consult:
>>> print(df.to_string())
                                   molecule  numeric_readout
0  C[Si](C)(C)OB(O[Si](C)(C)C)O[Si](C)(C)C [tris(trimethylsilyl) borate]              -35
1                 Nc1cc(Cl)ccc1[N+](=O)[O-]              126
2                        C=Cc1ccc(B(O)O)cc1              190

[A] CCCCCCN [Hexan-1-amine]
[B] NC(c1ccccc1)c1ccccc1
[in] Response body: label of entry with the larger melting point; valid values A , B . # answer = label of selected item
[out] B

* * *

Result Type: melting point (°C)

Answered cases to consult:
In [3]: df
Out[3]:
                                   molecule    result_type  numeric_readout
0  CCCOC1CCC2C3CCC4=CC(O)CCC4(C)C3CCC12C (stereo not given)  melting point              125
1                                CSc1cnccn1  melting point               44

[P] OC(c1ccccc1)c1ccccc1 [benzhydrol]
[Q] CCCC(=O)Nc1ccc(OCC(O)CNC(C)C)c(C(C)=O)c1 (stereo not given) [Acebutolol]
[in] Lab note: check whether P or Q has the lower measured melting point. # answer = label of selected item
[out] P
